Tested system: Estrogen receptor beta (Homo sapiens)
Measurement description: inhibitors of ERβ-SRC1 coactivator interaction, primary screen, biochemical, TR-FRET, ERβ LBD, SRC-1 peptide (AID 633);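 also: 0% = receptor plus peptide wells without compound and 100% = peptide-only wells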
Test conditions: TR-FRET ER-beta LBD / SRC1-Cy5 peptide binding; at 25.6 µM; receptor agonist-loaded with 1 µM estradiol
Out of some 86,000 compounds screened, about 1,100 (1.3%) were called active.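 The calls were made as follows: active = compounds whose percent inhibition of the receptor-coactivator binding signal exceeds about 50% in the single-dose screen (limit read from the data); inactive = the rest.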 For the sample, actives were picked, then their nearest neighbours and some compounds at random.
Your reply should match one of these outcome classes. label 1 = active, label 0 = inactive

{"columns": ["Compound", "Category label"],
 "data": [
  ["COc1ccc(N2C(=O)C3CCCN3C2c2cccs2)cc1 (stereo not given)", "label 0"],
  ["COc1ccc(N2C(=O)C3CCCN3C2c2cc(OC)c(OC)cc2OC)cc1 (stereo not given)", "label 1"]
]}

Answer briefly: the call reported for CCN(c1ccccc1)S(=O)(=O)c1ccc(NC(=O)C(C)(C)C)cc1 in this assay. label 0

Answer briefly: the call reported for O=C(CCC(=O)c1cccs1)NCc1ccccc1 in this assay. label 0

Answer briefly: the call reported for CN(C)[C@@H]1C(=O)C(C(N)=O)=C(O)[C@@]2(O)C(=O)C3=C(O)c4c(O)ccc(Cl)c4[C@@H](O)[C@H]3C[C@@H]12 in this assay. label 1

###

Tested system: Estrogen receptor beta (Homo sapiens) (UniProt Q92731)
Sequence (Q92731 whole entry, looked up, the tested form may be a part): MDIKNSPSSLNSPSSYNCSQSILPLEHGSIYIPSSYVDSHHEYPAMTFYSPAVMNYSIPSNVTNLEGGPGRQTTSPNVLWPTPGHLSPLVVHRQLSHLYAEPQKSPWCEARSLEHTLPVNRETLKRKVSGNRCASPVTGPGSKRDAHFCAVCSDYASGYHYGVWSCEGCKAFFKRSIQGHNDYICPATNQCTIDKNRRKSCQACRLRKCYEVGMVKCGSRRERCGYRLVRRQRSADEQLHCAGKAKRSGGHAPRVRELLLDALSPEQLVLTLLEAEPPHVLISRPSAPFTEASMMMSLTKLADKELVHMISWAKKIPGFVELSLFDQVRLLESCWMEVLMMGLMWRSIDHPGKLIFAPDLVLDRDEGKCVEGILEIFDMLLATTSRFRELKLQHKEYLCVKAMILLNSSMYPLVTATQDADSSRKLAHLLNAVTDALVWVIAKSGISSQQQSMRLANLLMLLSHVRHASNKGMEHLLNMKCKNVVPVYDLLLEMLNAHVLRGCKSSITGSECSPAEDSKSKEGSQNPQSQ
Measurement description: inhibitors of ERβ-SRC1 coactivator interaction, primary screen, biochemical, TR-FRET, ERβ LBD, SRC-1 peptide (AID 633);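 also: 0% = receptor plus peptide wells without compound and 100% = peptide-only wells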
Test conditions: TR-FRET ER-beta LBD / SRC1-Cy5 peptide binding; at 25.6 µM; hits give high values; receptor agonist-loaded with 1 µM estradiol
Among all 86,000 compounds or so, about 1,100 (1.3%) were called active. Many of the other results were omitted from the sample, so actives are more common in it than they were.
Endpoint name: inhibition

{"columns": ["Compound", "inhibition"],
 "data": [
  ["CC(C)(O)C(=O)NN(C(=O)c1ccccc1)c1cccc(Br)c1", "-3.36% (inactive)"]
]}

For every item in the list below, what is its measured inhibition?
1. COc1ccc(OC)c(Nc2nc(-c3ccc(O)c(O)c3)cs2)c1
2. Cc1ccc(Cc2cncc(O)c2)cc1S(=O)(=O)O
3. O=c1onc(-c2cccs2)n1Cc1ccccc1
4. O=C(/C=C/c1ccc(Cl)cc1Cl)c1cccnc1

1: 67.8% [fluorescence artefact?] (active); 2: 54.6% (active); 3: -0.76% (inactive); 4: 23.9% (inactive)

###

Tested system: Estrogen receptor beta (Homo sapiens) (UniProt Q92731)
Measurement description: inhibitors of ERβ-SRC1 coactivator interaction, primary screen, biochemical, TR-FRET, ERβ LBD, SRC-1 peptide (AID 633);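 also: 0% = receptor plus peptide wells without compound and 100% = peptide-only wells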
Test conditions: TR-FRET ER-beta LBD / SRC1-Cy5 peptide binding; at 25.6 µM; receptor agonist-loaded with 1 µM estradiol
The whole screen tested about 86,000 compounds, of which about 1,100 (1.3%) were called active.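 Rule for the calls: active = compounds whose percent inhibition of the receptor-coactivator binding signal exceeds about 50% in the single-dose screen (limit read from the data); inactive = the rest.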 This excerpt belongs to a sample that is enriched for actives.
Your reply should match one of these outcome classes. t (active), f (inactive)

As a guide, the following entries are already answered.
{"columns": ["Molecule", "Category label"],
 "data": [
  ["COc1ccc(CC(NC(C)=O)C(=O)N2CCN(C(=O)Nc3cccc(Cl)c3)CC2)cc1OC (stereo not given)", "f"],
  ["Cn1nc(-c2ccccc2)c(CSc2cccc(Cl)c2)c1Cl", "f"],
  ["O=c1c2ccccc2nc(CSc2nnnn2-c2ccccc2)n1-c1ccccc1", "t"],
  ["CCOc1ccc(Nc2oc(Cc3ccccc3)nc2C#N)cc1", "f"],
  ["CC(C)(C)C1CCc2c(sc3nc(SCC(N)=O)nc(N)c23)C1 (stereo not given)", "f"],
  ["N#Cc1c(NC(=O)CSc2nc3ccccc3c(=O)n2Cc2ccco2)sc2c1CCCC2", "t"]
]}

Answer briefly: the call reported for O=C(CSc1nnnn1-c1ccccc1)NCc1ccco1 in this assay. f

Answer briefly: the call reported for Oc1c(C(c2ccccn2)N2CCOCC2)ccc2cccnc12 (stereo not given) in this assay. t

Answer briefly: the call reported for CCOC(=O)C1CSC(CC(=O)Nc2ccc(OCC)cc2)C(=O)N1 (stereo not given) in this assay. f

Answer briefly: the call reported for COc1ccc(CCNS(=O)(=O)c2ccc(Cl)s2)cc1OC in this assay. f

Answer briefly: the call reported for COc1ccc(Nc2oc(-c3ccccc3Cl)nc2C#N)cc1 in this assay. t
